Origin of values: paper PMC7828447

Known inhibition at 1 µM of a selection of molecules
System name: human synthetic MSK1 (14-438-K, Millipore) (Homo sapiens, UniProt O75582)
Construct: purchased Millipore 14-438-K
Sequence (O75582 whole entry): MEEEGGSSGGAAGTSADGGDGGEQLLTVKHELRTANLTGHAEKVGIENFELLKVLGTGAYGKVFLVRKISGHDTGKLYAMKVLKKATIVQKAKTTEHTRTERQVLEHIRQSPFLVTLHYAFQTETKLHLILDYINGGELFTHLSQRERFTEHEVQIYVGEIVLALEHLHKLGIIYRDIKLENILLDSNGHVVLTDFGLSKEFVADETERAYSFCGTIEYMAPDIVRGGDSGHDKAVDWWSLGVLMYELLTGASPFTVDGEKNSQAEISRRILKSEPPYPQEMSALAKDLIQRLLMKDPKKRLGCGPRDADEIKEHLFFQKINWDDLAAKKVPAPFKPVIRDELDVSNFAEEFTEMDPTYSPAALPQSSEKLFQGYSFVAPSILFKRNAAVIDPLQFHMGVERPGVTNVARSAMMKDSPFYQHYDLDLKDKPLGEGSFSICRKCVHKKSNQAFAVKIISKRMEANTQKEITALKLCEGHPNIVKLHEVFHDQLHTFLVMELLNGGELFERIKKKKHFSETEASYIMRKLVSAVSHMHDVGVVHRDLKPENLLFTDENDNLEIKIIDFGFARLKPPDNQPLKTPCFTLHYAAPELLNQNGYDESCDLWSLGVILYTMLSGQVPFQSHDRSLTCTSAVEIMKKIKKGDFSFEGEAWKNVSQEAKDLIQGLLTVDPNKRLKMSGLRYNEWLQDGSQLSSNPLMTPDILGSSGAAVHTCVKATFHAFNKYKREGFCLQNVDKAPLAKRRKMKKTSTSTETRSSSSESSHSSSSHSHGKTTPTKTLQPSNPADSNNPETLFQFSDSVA
Run description: MSK1 enzymatic inhibition assay (Kinase-Glo luminescence)
Format: biochemical
Run parameters: compound at 1 µM; ± Standard Deviation (n = 4); read-out: MSK1 % Inhibition 1 µM
Protocol: All results are summarized in Table 1, Table 2, Table 3, Table 4 and Table 5 and on Figure 4. […] An orthogonal luminescence-based assay Kinase-Glo® (Promega, Madison, WI, USA) was used to validate the hits, quantifying the amount of the remaining ATP in the solution following the kinase reaction. Enzymatic reactions were performed up to 4h at room temperature in presence of 3 µM ATP. […] Luminescence was measured with EnVision Plate Reader (Perkin Elmer).
Just the number please, in %, no unit attached.

For orientation, consider the following solved cases.
Molecule	Unit of measure	inhibition at 1 µM
N=C(N)Nc1cccc(-c2ccccc2C(F)(F)F)n1.O=C(O)C(F)(F)F	%	4
Nc1nc2c(-c3ccccc3Cl)cccc2n1CCCNC(=O)c1ccccc1 [Compound 74c]	%	-4
Br.COc1ccccc1-c1cccc2c1CNC(N)=N2 [Compound 37g]	%	-14

Input Br.NC1=Nc2cccc(-c3ccc(Cl)cc3)c2CN1 [Compound 37b] . Output inhibition at 1 µM: -9

Input N=C(N)Nc1cccc(CCc2ccccc2)n1 . Output inhibition at 1 µM: -4

Input N=C(N)Nc1cccc(-c2ccc(Cl)cc2)n1 . Output inhibition at 1 µM: -4

Input COc1ccc(-c2cccc(NC(=N)N)n2)cc1 . Output inhibition at 1 µM: -5

Input NC(=S)Nc1cccc(-c2ccccc2)n1 . Output inhibition at 1 µM: 2

Input Cc1ccccc1-c1cccc(NC(=N)N)n1 . Output inhibition at 1 µM: 4

Input NC1=Nc2ccc(-c3ccccc3)cc2CN1 . Output inhibition at 1 µM: 7

====

System name: human synthetic MSK1 (14-438-K, Millipore) (Homo sapiens)
Construct: purchased Millipore 14-438-K
Run description: MSK1 enzymatic inhibition assay (Kinase-Glo luminescence)
Type: biochemical
Run parameters: ± Standard Deviation (n = 4); 8 concentrations 0.03-100 µM; read-out: MSK1 IC50
Property: pIC50
API: returns pIC50 as number; meaning -log10 of concentration in mol/L.

For orientation, consider the following solved cases.
Compound	pIC50
Br.NC1=Nc2cccc(-c3ccccc3Cl)c2CN1 [Compound 37f]	4.79
Nc1nc2c(-c3ccccc3)cccc2[nH]1 [Compound 49a]	5.44
Br.Nc1nc2c(-c3cc(Cl)ccc3Cl)cccc2[nH]1 [Compound 49f]	5.17
Nc1nc2c(-c3cccc(Cl)c3Cl)cccc2[nH]1 [Compound 49e]	5.49

Entry Br.Nc1nc2c(-c3ccccc3Cl)cccc2[nH]1 [Compound 49d] , tested on human synthetic MSK1 (14-438-K, Millipore) (Homo sapiens), has a reported pIC50 of 5.80

Entry N=C(N)Nc1cccc(-c2cccc(Cl)c2Cl)n1.O=C(O)C(F)(F)F , tested on human synthetic MSK1 (14-438-K, Millipore) (Homo sapiens), has a reported pIC50 of 5.64

Entry N=C(N)Nc1cccc(-c2cc(Cl)ccc2Cl)n1 , tested on human synthetic MSK1 (14-438-K, Millipore) (Homo sapiens), has a reported pIC50 of 6.05

Entry N=C(N)Nc1cccc(-c2ccccc2)n1 , tested on human synthetic MSK1 (14-438-K, Millipore) (Homo sapiens), has a reported pIC50 of 4.75

Entry NC1=Nc2cccc(-c3ccccc3)c2CN1 [Compound 37a] , tested on human synthetic MSK1 (14-438-K, Millipore) (Homo sapiens), has a reported pIC50 of 4.80
